Recorded metric: melting point

Examples with answers:
[[record]]
molecule = "CC(=NN=C1SCC(=O)N1Cc1ccccc1Cl)c1cccs1 [Compound 20]"
result_value = "100 to 102 °C"

[[record]]
molecule = "CC(=NN=C1SCC(=O)N1Cc1ccc(Cl)cc1)c1cccs1 [Compound 26]"
result_value = "146 to 151 °C"

[[record]]
molecule = "CC(=NN=C1SCC(=O)N1Cc1cccc(Cl)c1)c1cccs1 [Compound 23]"
result_value = "129 to 131 °C"


// batch mode: one melting point value per listed entry
1. CC(=NN=C1SCC(=O)N1Cc1ccc(F)cc1)c1cccs1 [Compound 17]
2. CCCCC(CC)=NN=C1SCC(=O)N1Cc1cccc(F)c1 [Compound 13]

[out]
1. 118 to 123 °C
2. 30 to 31 °C

Field: melting point. Fill in for each record below.
1. CC(=NN=C1SCC(=O)N1Cc1cccc(F)c1)c1cccs1 [Compound 14]
2. CC(=NN=C1SCC(=O)N1Cc1cccc([N+](=O)[O-])c1)c1cccs1 [Compound 5]
3. CCCCC(CC)=NN=C1SCC(=O)N1Cc1ccccc1[N+](=O)[O-] [Compound 1]
4. CC(=NN=C1SCC(=O)N1Cc1ccccc1F)c1cccs1 [Compound 11]
5. CC(=NN=C1SCC(=O)N1Cc1ccccc1[N+](=O)[O-])c1cccs1 [Compound 2]

[out]
1. 84 to 85 °C
2. 165 to 170 °C
3. 67 to 69 °C
4. 80 to 85 °C
5. 150 to 151 °C

* * *

system: human foreskin fibroblast (HFF); assay: Five-day growth inhibition assay, host cell cytotoxicity; details: 120 h, HFF cells, top concentration 320 μM
Please provide measured TD50, median toxicity dose, a measure of cytotoxicity against host cells for the entries that follow.

// solved cases for TD50, median toxicity dose, a measure of cytotoxicity against host cells follow
[[record]]
line_notation = "CC(=NN=C1SCC(=O)N1Cc1cccc(F)c1)c1ccc[cH-]1.[Fe+2].c1cc[cH-]c1"
result_value = "≥320 µM"

[[record]]
line_notation = "CC(=NN=C1SCC(=O)N1Cc1cccc([N+](=O)[O-])c1)c1ccc[cH-]1.[Fe+2].c1cc[cH-]c1"
result_value = "≥320 µM"


[in] # query: TD50, median toxicity dose, a measure of cytotoxicity against host cells of entry CC(=NN=C1SCC(=O)N1Cc1cccc(Cl)c1)c1ccc[cH-]1.[Fe+2].c1cc[cH-]c1
[out] ≥320 µM
